Data credit: ChEMBL document CHEMBL4689842

- System: U2OS
- protocol_details: Incucyte cell viability with U2OS; note: filed as whole numbers so only -1 and 0 and 1 occur
- Format: toxicity, cell-based
- details: human, 12 h, 10 µM, compound concentration 10 uM, replicate number 1, timepoint 12 hours
Give Growth Rate for every item shown.
// print number alone

Request: GET /values?readout=Growth Rate&item= `COc1cc(C#N)ccc1S(=O)(=O)Nc1ccc2c(c1)cc(C)c(=O)n2C`
Response: 0

Request: Repeat with `CCCOc1ccn2c(C(C)=O)cc(-c3cccc(OC)c3)c2c1`
Response: 1

Request: Repeat with `CN1CCN(Cc2ccc(-c3cnc4[nH]cc(-c5ccc6[nH]ccc6c5)c4c3)cc2)CC1`
Response: 1

Request: Repeat with COc1cccc(-c2c(C)n(Cc3c(F)cccc3C(F)(F)F)c(=O)n(C[C@H](NCCCC(=O)[O-])c3ccccc3)c2=O)c1F.[Na+] [ELAGOLIX SODIUM]
Response: 0
